# target_or_test_system: T1, Clostridium difficile toxin A (TcdA) (Clostridium difficile, UniProt P16154 1-2710)
# T1 construct: mature; also called full-length TcdA
# T1 sequence (P16154 whole entry): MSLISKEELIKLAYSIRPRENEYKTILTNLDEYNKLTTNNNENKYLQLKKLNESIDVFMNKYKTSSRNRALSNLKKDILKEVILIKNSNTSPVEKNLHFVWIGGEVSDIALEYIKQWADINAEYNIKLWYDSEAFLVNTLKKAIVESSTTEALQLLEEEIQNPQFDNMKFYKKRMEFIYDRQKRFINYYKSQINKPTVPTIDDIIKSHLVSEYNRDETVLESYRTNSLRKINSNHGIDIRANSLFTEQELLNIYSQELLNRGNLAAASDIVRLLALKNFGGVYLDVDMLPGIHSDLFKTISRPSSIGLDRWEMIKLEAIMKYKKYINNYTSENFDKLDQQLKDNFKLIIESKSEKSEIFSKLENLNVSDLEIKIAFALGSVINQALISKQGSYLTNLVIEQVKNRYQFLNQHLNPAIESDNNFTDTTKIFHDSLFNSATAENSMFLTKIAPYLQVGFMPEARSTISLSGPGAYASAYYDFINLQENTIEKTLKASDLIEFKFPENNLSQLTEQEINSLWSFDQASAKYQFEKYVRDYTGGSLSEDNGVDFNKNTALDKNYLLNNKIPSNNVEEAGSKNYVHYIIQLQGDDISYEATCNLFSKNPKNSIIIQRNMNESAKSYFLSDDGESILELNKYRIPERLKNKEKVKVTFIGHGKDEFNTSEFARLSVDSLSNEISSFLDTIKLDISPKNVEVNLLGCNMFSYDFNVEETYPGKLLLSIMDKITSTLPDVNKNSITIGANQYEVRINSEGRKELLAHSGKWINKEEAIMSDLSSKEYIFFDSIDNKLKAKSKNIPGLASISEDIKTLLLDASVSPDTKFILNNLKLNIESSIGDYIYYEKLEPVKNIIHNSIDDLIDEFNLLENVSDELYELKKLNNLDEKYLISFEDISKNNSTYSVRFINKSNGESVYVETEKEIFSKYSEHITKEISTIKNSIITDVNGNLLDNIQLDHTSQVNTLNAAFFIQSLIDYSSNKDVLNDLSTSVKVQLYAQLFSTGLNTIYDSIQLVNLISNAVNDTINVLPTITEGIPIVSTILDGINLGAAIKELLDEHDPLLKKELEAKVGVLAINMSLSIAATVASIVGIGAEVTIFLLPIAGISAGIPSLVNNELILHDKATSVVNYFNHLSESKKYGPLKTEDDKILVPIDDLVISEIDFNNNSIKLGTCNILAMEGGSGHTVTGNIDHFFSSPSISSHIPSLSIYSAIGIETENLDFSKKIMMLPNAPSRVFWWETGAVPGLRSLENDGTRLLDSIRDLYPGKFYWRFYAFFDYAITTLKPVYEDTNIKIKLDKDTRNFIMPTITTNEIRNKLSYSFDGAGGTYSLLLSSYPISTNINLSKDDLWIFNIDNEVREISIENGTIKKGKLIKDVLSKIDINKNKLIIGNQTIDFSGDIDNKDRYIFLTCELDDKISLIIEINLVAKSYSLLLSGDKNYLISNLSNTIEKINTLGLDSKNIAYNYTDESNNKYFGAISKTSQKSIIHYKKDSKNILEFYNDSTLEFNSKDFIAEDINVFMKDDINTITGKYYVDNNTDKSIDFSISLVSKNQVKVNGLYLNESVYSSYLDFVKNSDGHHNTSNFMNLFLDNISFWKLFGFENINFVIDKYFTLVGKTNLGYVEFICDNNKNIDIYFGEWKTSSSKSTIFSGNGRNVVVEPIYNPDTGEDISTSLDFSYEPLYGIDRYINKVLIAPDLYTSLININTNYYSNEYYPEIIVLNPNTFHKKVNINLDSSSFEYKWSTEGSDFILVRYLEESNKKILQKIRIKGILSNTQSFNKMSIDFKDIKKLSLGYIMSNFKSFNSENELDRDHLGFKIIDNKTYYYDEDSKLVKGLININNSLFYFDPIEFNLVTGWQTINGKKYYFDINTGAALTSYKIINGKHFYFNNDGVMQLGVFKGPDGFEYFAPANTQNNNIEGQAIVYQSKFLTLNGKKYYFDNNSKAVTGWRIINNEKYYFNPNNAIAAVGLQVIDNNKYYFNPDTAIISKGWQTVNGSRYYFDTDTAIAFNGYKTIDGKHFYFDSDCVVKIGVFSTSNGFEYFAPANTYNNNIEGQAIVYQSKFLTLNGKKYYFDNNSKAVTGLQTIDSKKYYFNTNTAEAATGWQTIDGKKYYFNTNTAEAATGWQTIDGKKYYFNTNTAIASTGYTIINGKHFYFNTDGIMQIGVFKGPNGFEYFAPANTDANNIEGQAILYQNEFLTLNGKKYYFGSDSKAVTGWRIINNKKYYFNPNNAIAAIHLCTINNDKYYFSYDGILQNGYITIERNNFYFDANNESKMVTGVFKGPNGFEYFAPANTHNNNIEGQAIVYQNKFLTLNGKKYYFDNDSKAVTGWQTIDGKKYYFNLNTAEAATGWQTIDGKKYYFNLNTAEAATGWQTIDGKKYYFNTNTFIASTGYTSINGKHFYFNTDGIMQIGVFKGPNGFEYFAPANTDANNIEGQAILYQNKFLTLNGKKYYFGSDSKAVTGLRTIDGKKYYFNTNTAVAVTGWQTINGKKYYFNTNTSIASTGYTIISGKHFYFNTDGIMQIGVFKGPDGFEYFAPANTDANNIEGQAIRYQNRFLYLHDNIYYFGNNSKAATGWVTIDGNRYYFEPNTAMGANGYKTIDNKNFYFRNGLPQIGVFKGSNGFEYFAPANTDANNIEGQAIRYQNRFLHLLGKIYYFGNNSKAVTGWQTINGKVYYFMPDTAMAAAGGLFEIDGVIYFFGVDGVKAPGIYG
# assay_overview: SPR (Biacore 3000), VHH over immobilized TcdA; ratio of parent KD to mutant KD
Friendly reminder: KD^WT/KD below 0.4 is satisfied, at or above is not satisfied.

[Q] Could you please tell me whether KD^WT/KD recorded for A26.8-T56R, T103R (VHH, not shown: small tags and cut ends, also called lead double mutant; best double mutant) VHH: QVKLEESGGGLVQAGGSLRLSCAASERTFSRYPVAWFRQAPGAEREFVAVISSTGRSTYYADSVKGRFTISRDNAKVTVYLQMNNLKREDTAVYFCAVNSQRRRLQDPNEYDYWGQGTQVTVSS is less than 0.4?
[A] not satisfied

[Q] Could you please tell me whether KD^WT/KD recorded for A26.8 VHH mutant S53R (VHH, not shown: small tags and cut ends) VHH: QVKLEESGGGLVQAGGSLRLSCAASERTFSRYPVAWFRQAPGAEREFVAVISRTGTSTYYADSVKGRFTISRDNAKVTVYLQMNNLKREDTAVYFCAVNSQRTRLQDPNEYDYWGQGTQVTVSS is less than 0.4?
[A] satisfied

[Q] Could you please tell me whether KD^WT/KD recorded for A26.8-T56R (VHH, not shown: small tags and cut ends) VHH: QVKLEESGGGLVQAGGSLRLSCAASERTFSRYPVAWFRQAPGAEREFVAVISSTGRSTYYADSVKGRFTISRDNAKVTVYLQMNNLKREDTAVYFCAVNSQRTRLQDPNEYDYWGQGTQVTVSS is less than 0.4?
[A] not satisfied

[Q] Could you please tell me whether KD^WT/KD recorded for A26.8-Q101K,T103M (VHH, not shown: small tags and cut ends) VHH: QVKLEESGGGLVQAGGSLRLSCAASERTFSRYPVAWFRQAPGAEREFVAVISSTGTSTYYADSVKGRFTISRDNAKVTVYLQMNNLKREDTAVYFCAVNSKRMRLQDPNEYDYWGQGTQVTVSS is less than 0.4?
[A] not satisfied

[Q] Could you please tell me whether KD^WT/KD recorded for A26.8-T103R (VHH, not shown: small tags and cut ends) VHH: QVKLEESGGGLVQAGGSLRLSCAASERTFSRYPVAWFRQAPGAEREFVAVISSTGTSTYYADSVKGRFTISRDNAKVTVYLQMNNLKREDTAVYFCAVNSQRRRLQDPNEYDYWGQGTQVTVSS is less than 0.4?
[A] not satisfied

Data origin: patent US20210171613A1
